# Tested on: M14 melanoma
# Test protocol: NCI tumour cell line growth inhibition, 48 h
Readout kind: TGI

stdin: Query for M14 melanoma: what TGI does the record show for NCC1OC(OC2C(N)CC(N)C(O)C2OC2OC(CO)C(O)C2O)C(N)C(O)C1O (stereo not drawn) ?
stdout: > 100 µM

stdin: Query for M14 melanoma: what TGI does the record show for `C=C(CCC(=O)N(CCc1c[nH]c2ccccc12)C(=O)c1ccccc1CSCC)C(=O)OC` ?
stdout: > 100 µM

stdin: Query for M14 melanoma: what TGI does the record show for `CC(C)(C)C(=O)C(N)C(=O)C(C)(C)C` ?
stdout: > 100 µM

stdin: Query for M14 melanoma: what TGI does the record show for `Cn1cc(C2=C(c3cccc([N+](=O)[O-])c3)C(=O)NC2=O)c2ccccc21` ?
stdout: > 25 µM

stdin: Query for M14 melanoma: what TGI does the record show for `O=c1[nH]c(NCCCCCO)nc2nc[nH]c12` ?
stdout: > 100 µM

stdin: Query for M14 melanoma: what TGI does the record show for `O=c1ccc(=O)c2c1c1[nH]c3ccccc3c1c1c(=O)c3ccccc3c(=O)c21` ?
stdout: > 10 µM

stdin: Query for M14 melanoma: what TGI does the record show for `C[N+](C)([O-])C12CC3CC(CC(C3)C1)C2` ?
stdout: > 100 µM

stdin: Query for M14 melanoma: what TGI does the record show for `CN(CC(=O)O)c1ncc2c(n1)-c1ccccc1CC2` ?
stdout: > 100 µM
